Target: Mitogen-activated protein kinase 1 (Homo sapiens) (UniProt P28482);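 note: reported figure is an averaged percent inhibition of the kinase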
Sequence (P28482 whole entry): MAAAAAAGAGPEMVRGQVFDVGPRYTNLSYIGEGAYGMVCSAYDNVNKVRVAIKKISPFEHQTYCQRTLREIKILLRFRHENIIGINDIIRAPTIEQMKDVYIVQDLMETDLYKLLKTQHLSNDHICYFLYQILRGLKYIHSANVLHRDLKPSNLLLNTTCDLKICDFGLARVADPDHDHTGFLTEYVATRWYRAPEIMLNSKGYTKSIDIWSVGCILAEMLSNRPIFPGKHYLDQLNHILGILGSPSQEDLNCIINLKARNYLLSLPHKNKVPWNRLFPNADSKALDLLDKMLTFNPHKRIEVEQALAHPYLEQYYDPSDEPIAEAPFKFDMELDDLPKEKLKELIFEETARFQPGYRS
Details: at 0.1 µM
ASSAY ENDPOINT: inhibition (%)
Quick reminder: number only, in %, skip the unit.

With Mitogen-activated protein kinase 1 (Homo sapiens) (UniProt P28482) as the test system, "Cc1ccc2c(-c3ccnc(Nc4ccc5c(c4)OCCO5)n3)c(-c3ccc(C(F)(F)F)cc3)nn2n1" showed inhibition of 1.99

Recorded inhibition for "Cc1cc(Cl)cc2c1NC(=O)C2=NNc1ccc(S(N)(=O)=O)cc1" on Mitogen-activated protein kinase 1 (Homo sapiens) (UniProt P28482) was 4.09

Readout inhibition for "COc1cccc(-n2ncc3c(N/N=C/c4ccc(C)cc4)ncnc32)c1" , test system Mitogen-activated protein kinase 1 (Homo sapiens) (UniProt P28482), was 6.17

The molecule "CC(C)c1ccc(Nc2nccc(-c3cnn4ncccc34)n2)cc1" on Mitogen-activated protein kinase 1 (Homo sapiens) (UniProt P28482): inhibition was 3.14

Considering "COc1cccc(-n2nc(C)c3c(N/N=C(\C)c4ccncc4)ncnc32)c1" , its inhibition with Mitogen-activated protein kinase 1 (Homo sapiens) (UniProt P28482) was recorded as 2.86

Sample "Cc1nc(-c2ccccc2)n2nc(NCCCN3CCOCC3)ncc12" , system: Mitogen-activated protein kinase 1 (Homo sapiens) (UniProt P28482). Its inhibition is 3.31

GET /values?item= "Nc1nccc(-c2c(-c3ccc(F)cc3)ncn2CCCN2CCOCC2)n1" &system= Mitogen-activated protein kinase 1 (Homo sapiens) (UniProt P28482) returns inhibition: 6.64

Tested on Mitogen-activated protein kinase 1 (Homo sapiens) (UniProt P28482): "C[C@@H](Oc1cc(-n2cnc3ccc(OC[C@@H](O)CO)cc32)sc1C(N)=O)c1ccccc1Cl" . Observed inhibition: -3.13

inhibition for Mitogen-activated protein kinase 1 (Homo sapiens) (UniProt P28482) with input "O=S(=O)(CCOCc1ccc(-c2ccc3ncnc(Nc4ccc(OCc5cccc(F)c5)c(Cl)c4)c3c2)o1)c1ccccc1" equals 2.68

Bench note, Mitogen-activated protein kinase 1 (Homo sapiens) (UniProt P28482): "COc1cc(/C=N/Nc2ncnc3c2cnn3C(C)C)ccc1O" , inhibition reads 1.48

----------
Biological target: Maternal embryonic leucine zipper kinase (Homo sapiens) (UniProt Q14680);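 note: reported figure is the mean percent inhibition of MELK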
Sequence (Q14680 whole entry, looked up): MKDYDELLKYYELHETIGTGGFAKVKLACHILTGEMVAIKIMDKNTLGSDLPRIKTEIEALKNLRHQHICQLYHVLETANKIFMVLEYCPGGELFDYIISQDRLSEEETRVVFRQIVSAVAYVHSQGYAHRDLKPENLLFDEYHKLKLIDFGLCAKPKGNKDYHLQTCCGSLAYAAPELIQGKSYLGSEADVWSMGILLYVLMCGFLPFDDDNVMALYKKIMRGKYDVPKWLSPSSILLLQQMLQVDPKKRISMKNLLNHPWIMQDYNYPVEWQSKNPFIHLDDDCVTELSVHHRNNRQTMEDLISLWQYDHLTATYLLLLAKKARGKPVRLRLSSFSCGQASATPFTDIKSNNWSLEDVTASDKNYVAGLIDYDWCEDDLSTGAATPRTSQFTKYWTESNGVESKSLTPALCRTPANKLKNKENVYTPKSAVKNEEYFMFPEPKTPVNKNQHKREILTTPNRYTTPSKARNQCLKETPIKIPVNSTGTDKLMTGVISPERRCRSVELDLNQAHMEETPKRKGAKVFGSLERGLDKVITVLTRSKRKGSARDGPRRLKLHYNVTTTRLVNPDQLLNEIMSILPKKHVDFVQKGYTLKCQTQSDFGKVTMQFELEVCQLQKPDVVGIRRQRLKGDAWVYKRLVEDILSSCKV
Details: at 0.1 µM
ASSAY ENDPOINT: inhibition (%)
Numeric only. Scale: %

Quick note, inhibition for "CN(C)C(=O)O[C@H]1CN[C@H](C#Cc2cc3ncnc(Nc4ccc(OCc5cccc(F)c5)c(Cl)c4)c3s2)C1" landed at 1.5

Sure, the documented inhibition for "Cc1ccc(C(=O)NC2CC2)cc1-c1ccc2[nH]ncc2c1" is -4.14

According to the records, this molecule "Nc1nccc(-c2c(-c3ccc(F)cc3)ncn2CCCN2CCOCC2)n1" displays inhibition of 9.7

Note to self: inhibition recorded for CCCN1CCCC(c2ccc(Nc3nc(Nc4cc(F)ccc4C(N)=O)c4cc[nH]c4n3)c(OC)c2)C1 (centres undefined) was 24

Query "C[C@@H](Oc1cc(-n2cnc3ccc(OC[C@@H](O)CO)cc32)sc1C(N)=O)c1ccccc1Cl" yields inhibition of -2.58

Entry "COc1cccc(-n2ncc3c(N/N=C/c4ccc(C)cc4)ncnc32)c1" ; inhibition = 5.47

Briefly, inhibition measured for "CN(C)c1cc2c(Nc3ccc4c(cnn4Cc4ccccc4)c3)ncnc2cn1" : 2.68

The reported value for "CN(c1ccc(NC(=O)Nc2ccc(OC(F)(F)F)cc2)cc1)c1ccnc(Nc2cccc(S(N)(=O)=O)c2)n1" in terms of inhibition is 0.77

Data point: "Cc1ccc2c(-c3ccnc(Nc4cccc(C(F)(F)F)c4)n3)c(-c3ccccc3)nn2n1" ; inhibition = 5.84

From: ChEMBL document CHEMBL1961873
